This section presents compounds with their documented pA2 values.
assay: Antagonistic Alpha-1 adrenergic receptor activity against phenylephrine-induced contraction of rabbit prostate; assay type: functional, Oryctolagus cuniculus
Give the value as a plain number.

Task item: Looking for the measured pA2 of `COc1ccccc1N1CCN(CCCOc2ccc(C(=O)Nc3ccccc3OCCCC(=O)O)cc2OCc2ccccc2)CC1` , can you help?
Reply: 7.2

Others:
Task item: Requested read-out: pA2. Entry: `COc1ccccc1N1CCN(CCOc2cc(C(=O)c3cn(CCCC(=O)O)c4ccccc34)ccc2OCc2ccc(C)cc2)CC1`
Reply: 6.8

Task item: Recorded pA2 of `CCCOc1ccccc1N1CCN(CCCOc2cc(C(=O)c3cn(CCCC(=O)O)c4ccccc34)ccc2OCc2ccc(C)cc2)CC1` , please.
Reply: 6.8

###

molecular target: Steroid 5-alpha-reductase (Rattus norvegicus, UniProt P24008+P31214); assay: Inhibition of Steroid 5-alpha-reductase from Dawley rat prostate; type: tissue-based, Prostate gland
assay_endpoint: IC50 (nM)
Write it as a number; the unit nM goes unstated.

Task item: Fill in the blank: the reported IC50 of `CCCOc1ccccc1N1CCN(CCCOc2cc(C(=O)c3cn(CCCC(=O)O)c4ccccc34)ccc2OCc2ccc(C)cc2)CC1` is ____.
Reply: 3

Task item: Param item = `COc1ccccc1N1CCN(CCCCOc2cc(C(=O)c3cn(CCCC(=O)O)c4ccccc34)ccc2OCc2ccc(C)cc2)CC1` ; retrieve measured IC50.
Reply: 1.5

Task item: Sample `COc1ccccc1N1CCN(CCCOc2ccc(C(=O)Nc3ccccc3OCCCC(=O)O)cc2OCc2ccccc2)CC1` — what was its IC50?
Reply: 3500

Task item: Using the record for `COc1ccccc1N1CCN(CCCOc2cc(C(=O)c3cn(CCCC(=O)O)c4ccccc34)ccc2OCc2ccccc2)CC1` , report its IC50.
Reply: 11

Task item: What does the record list as IC50 for `CCOc1ccccc1N1CCN(CCCOc2cc(C(=O)c3cn(CCCC(=O)O)c4ccccc34)ccc2OCc2ccc(C)cc2)CC1` ?
Reply: 1.5

Continuing:
Task item: Quick one: IC50 of `COc1ccccc1N1CCN(CCOc2cc(C(=O)c3cn(CCCC(=O)O)c4ccccc34)ccc2OCc2ccc(C)cc2)CC1` ?
Reply: 4.8

Task item: Reported IC50, molecule `CC(C)Cc1ccc(C(Nc2cccc(C(=O)c3cn(CCCC(=O)O)c4ccccc34)c2)c2ccc(CC(C)C)cc2)cc1` : ____
Reply: 4.2
